- Test summary: Mean plasma concentration at 24h in Swiss albino male mice at […] per compound (administered orally in a mixture of 5 compounds to 3 mice) assessed by LCMS/MS.
- Format: ADME, organism-based
- Condition label: mouse, po
Measurement name: log10 of concentration at 24 h (log10 of the value in ng/mL)

{"Entry smiles": "COc1ccc(-c2c(C(C)C)nc3cnc(-c4ccc(F)c(C(F)(F)F)c4)cn23)cc1O", "Number": -1.00}
{"Entry smiles": "COc1ccc(-c2c(C(C)C)nc3cnc(-c4ccnc(N(C)C)c4)cn23)cc1O", "Number": -1.00}
{"Entry smiles": "Fc1ccc(-c2cn3c(-c4ccc5[nH]ncc5c4F)c(C(F)(F)F)nc3cn2)cc1C1CCC1", "Number": 0.51}
{"Entry smiles": "CC(C)c1nc2cnc(-c3cccc(S(F)(F)(F)(F)F)c3)cn2c1-c1c(F)cc(O)cc1F", "Number": -1.00}
{"Entry smiles": "Fc1ccc(-c2cn3c(-c4ccc5[nH]ncc5c4F)c(C(F)(F)F)nc3cn2)cc1OC(F)(F)F", "Number": 2.22}
{"Entry smiles": "CC(C)c1nc2cnc(-c3cccc(C(F)(F)F)c3)cn2c1-c1ccc(OP(=O)(O)O)cc1F", "Number": -1.00}
{"Entry smiles": "Fc1ccc(-c2cn3c(-c4ccc5[nH]ncc5c4)c(C(F)(F)F)nc3cn2)cc1C(F)(F)F", "Number": 2.32}
{"Entry smiles": "COc1ccc(-c2c(C)nn3cnc(-c4cccc(C(F)(F)F)c4)cc23)cc1O", "Number": -1.00}
{"Entry smiles": "CC1(c2nc3cnc(-c4ccc(F)c(C(F)(F)F)c4)cn3c2-c2c(F)cc(O)cc2F)CC1", "Number": 0.85}
